target_desc: Neu5Ac(a2-6)Gal(b1-4)GlcNAc(b1-2)Man(a1-3)Man(b1-4)GlcNAc(b1-4)GlcNAc
measurement_protocol: glycan array binding signal (z-score within array); higher = stronger binding
condition_info: glycan notation: IUPAC condensed, linker removed
This is one part of a sample in which the strongest signals are shown more often than they occur.
quantity_kind: glycan array binding signal (z-score)
// print number alone

**Q:** What glycan array binding signal (z-score) value was documented for this binder, Calsepa (Calystegia sepium), P93114 (protein) MAVPMDTISGPWGNNGGNFWSFRPVNKINQIVISYGGGGNNPIALTFSSTKADGSKDTITVGGGGPDSITGTEMVNIGTDEYLTGISGTFGIYLDNNVLRSITFTTNLKAHGPYGQKVGTPFSSANVVGNEIVGFLGRSGYYVDAIGTYNRHK ?
**A:** 6.79

Now look at this entry.
**Q:** What glycan array binding signal (z-score) value was documented for this binder, MVL (Microcystis viridis), Q9RHG4 (protein) MASYKVNIPAGPLWSNAEAQQVGPKIAAAHQGNFTGQWTTVVESAMSVVEVELQVENTGIHEFKTDVLAGPLWSNDEAQKLGPQIAASYGAEFTGQWRTIVEGVMSVIQIKYTF ?
**A:** 0.179
